system_name: Polyunsaturated fatty acid lipoxygenase ALOX12 (Homo sapiens) (UniProt P18054)
Sequence (P18054 whole entry, looked up): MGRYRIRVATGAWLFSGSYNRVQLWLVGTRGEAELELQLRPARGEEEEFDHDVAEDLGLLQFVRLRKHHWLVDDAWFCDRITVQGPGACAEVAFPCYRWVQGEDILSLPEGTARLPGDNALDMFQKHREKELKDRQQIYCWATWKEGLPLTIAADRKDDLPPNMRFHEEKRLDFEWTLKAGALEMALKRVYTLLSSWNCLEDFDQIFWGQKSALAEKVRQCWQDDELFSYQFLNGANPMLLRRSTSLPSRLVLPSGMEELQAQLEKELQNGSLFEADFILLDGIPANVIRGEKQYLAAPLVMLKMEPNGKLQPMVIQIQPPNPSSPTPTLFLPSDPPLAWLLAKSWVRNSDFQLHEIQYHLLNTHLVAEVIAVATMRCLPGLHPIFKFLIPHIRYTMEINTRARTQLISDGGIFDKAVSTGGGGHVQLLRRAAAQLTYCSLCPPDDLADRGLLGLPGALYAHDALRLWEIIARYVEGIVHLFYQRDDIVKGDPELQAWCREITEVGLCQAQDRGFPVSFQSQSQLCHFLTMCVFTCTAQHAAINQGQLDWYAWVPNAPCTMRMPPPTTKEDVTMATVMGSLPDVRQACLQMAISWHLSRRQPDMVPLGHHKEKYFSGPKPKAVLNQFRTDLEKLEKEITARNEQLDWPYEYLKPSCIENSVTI
measurement_notes: Primary qHTS assay for inhibitors of human arachidonate 12S-lipoxygenase (ALOX12): Round 2
applied_conditions: purified 12hLO, xylenol orange hydroperoxide absorbance; series mostly up to 108 µM
About 6,100 (1.1%) of roughly 580,000 compounds were called active. Not shown: some 15% with an inconclusive outcome. Calls follow the shape of the dose curve; as a rule, active = well fitted inhibition curve with a large enough effect; inconclusive = small, poorly fitted or top-dose-only effect, or another doubt; inactive = no such curve, though single readings can be large or run the other way. The list comes from a sample in which actives are over-represented; it also holds close analogues and randomly drawn compounds.
Write down one outcome, taken from active, inactive

Which outcome did this test record for the compound CC1CCCCN1C(C)CNC(=S)Nc1ccc(F)cc1F (stereo unspecified) ? inactive

Recorded call for Cc1cccc(-c2nc3cnccn3c2NCCC(=O)N2CCCCCC2)c1 ? inactive

New cases:
I would be grateful if you could indicate the recorded call for Cc1ccc(CN(CC(=O)NCC2CCCO2)C2CC2)cc1 (stereo unspecified) . inactive

Each compound tested received a call. Report the one for COc1ccc(-c2nc3cnccn3c2NC2CCCCC2)cc1-c1cccc(Cl)c1 . active

Assay result, entry Cc1nnc(SCC(=O)NNC(=O)c2ccc(Cl)cc2)n1CC1CCCO1 (stereo unspecified) — outcome? inactive

---

system_name: Polyunsaturated fatty acid lipoxygenase ALOX12 (Homo sapiens) (UniProt P18054)
measurement_notes: Primary qHTS assay for inhibitors of human arachidonate 12S-lipoxygenase (ALOX12): Round 2
applied_conditions: purified 12hLO, xylenol orange hydroperoxide absorbance; series mostly up to 108 µM
About 6,100 (1.1%) of roughly 580,000 compounds were called active. Not shown: some 15% with an inconclusive outcome. The call rests on the fitted dose curve; in most records, active means well fitted inhibition curve with a large enough effect; inconclusive means small, poorly fitted or top-dose-only effect, or another doubt; inactive means no such curve, though single readings can be large or run the other way. The sample holds actives, similar compounds and a random draw of the others, so the mix is not that of the screen.
Field 'call' accepts yes = active, no = inactive

In this assay, the call recorded for O=C(CSc1nc(CN2CCOCC2)nc2ccccc12)N1CCN(Cc2ccccc2)CC1 was what? no

Tell me the assay call for C#CCOC(=O)c1cccc(C(=O)O)c1 please. no

Check the results log: what was the call for O=C(c1cccc(Cl)c1)N1CCc2nc(C3CC3)nc(-c3ccc(Cl)cc3)c2C1 ? no

# lookup: test call for Cc1ccc(CSc2nsc(C)c2C#N)cc1 no

# fetch the recorded call for COc1ccc2c(c1)CCc1c-2n[nH]c1C(=O)N1CCC(c2noc(COc3ccc(C)cc3)n2)CC1 here no

New cases:
What did this assay record as the result for CCc1ccccc1NC(=O)CSc1nc2ccccc2nc1C ? no

Which outcome was assigned to CCCc1cc(=O)[nH]c(SCc2ccc(C#N)cc2)n1 in this test? no

Could you check what this test reported for S=c1[nH]nc2c3c4c(sc3ncn12)CCCC4 ? yes

Look up the recorded call for COc1cccc(C(=O)N2CCc3nc(C4CC4)nc(-c4ccc(Cl)cc4)c3C2)c1 in this test. yes

I'd appreciate the recorded outcome for Cc1ccc(-n2nnnc2SCc2ncc(-c3ccccc3)o2)cc1 from this test. no

Assay result, entry CC(CNC(=O)c1cc2ccccc2s1)N1CCCC1 (stereo unspecified) — outcome? no

---

system_name: Polyunsaturated fatty acid lipoxygenase ALOX12 (Homo sapiens)
measurement_notes: Primary qHTS assay for inhibitors of human arachidonate 12S-lipoxygenase (ALOX12): Round 2
applied_conditions: purified 12hLO, xylenol orange hydroperoxide absorbance; series mostly up to 108 µM
The campaign covered roughly 580,000 compounds. About 6,100 (1.1%) were called active. Roughly 15% stayed inconclusive and do not appear here. Calls come from the whole dose curve; as a rule, active = well fitted inhibition curve with a large enough effect; inconclusive = small, poorly fitted or top-dose-only effect, or another doubt; inactive = no such curve, though single readings can be large or run the other way. This is one part of a sample in which actives are shown more often than they occur.
Select the matching outcome among active, inactive

# lookup: test call for COc1ccc(CC(=O)Nc2ccc(-c3nc4ccccc4s3)c(C)c2)cc1 inactive

// param item: Cc1ccc(C(CNC(=O)c2cc3ccccc3oc2=O)N(C)C)o1 (stereo unspecified) ; yields the recorded call inactive

I'd appreciate the recorded outcome for COc1cccc(CNC(=O)Cn2c(=O)oc3cc(S(=O)(=O)N4CCCCC4)ccc32)c1 from this test. inactive

Hey, what did the test say about COc1ccc(C2NC(=O)C(=O)/C2=C(\O)c2ccc(Cl)cc2)cc1OC (stereo unspecified) ? active

Hi team, can someone confirm the assay call for CC(C)c1ccc(/C=N/NC(=O)c2cc(C3CC3)nc3ccccc23)cc1 ? inactive

Hello, I am checking results. What call was entered for CC1CCCCN1C(=O)Cn1c(=O)oc2cc(S(=O)(=O)N3CCCCC3)ccc21 (stereo unspecified) ? inactive

Query: recorded result category for CSc1ccccc1C(=O)NC(C)c1ccccc1 (stereo unspecified) in this test inactive

Tell me the recorded outcome of this test for Cc1c(CCC(=O)NCc2ccc3c(c2)OCO3)c(=O)oc2cc(O)ccc12 . inactive

Recorded test call requested for COC(=O)Cc1cc(=O)n(-c2nc3ccccc3s2)[nH]1 active

Given COc1cccc(-c2cc(NC(C)=O)c3ncc(-c4cccc(C(C)=O)c4)n3c2)c1 , state the outcome it received in this test. inactive

Short answer needed: outcome of this test for COc1cc(C(=O)Nc2ccc(C(=O)O)cc2)c2ccccc2n1 ? inactive
